- Test system: HBV (HepG2.117 cell line, inducibly HBV producing)
- experiment summary: Anti-HBV activity, intracellular HBV DNA by real-time PCR in HepG2.117 cell line
- Assay type: cell-based, hepatitis B virus
- experimental parameters: HepG2.117 cells, 3 days of treatment
API: label(entry) gives Fulfilled if the entry's EC50 is strictly smaller than 0.02 µM; on equality or larger values it gives Not fulfilled.

# molecule, label value
data = [
    ("CC(c1ccc(-c2ccn(C)n2)cc1)N1C[C@@H](C)n2nc3c(c2C1=O)CN(C(=O)c1ccc(Cl)c(C#N)c1)[C@H](C)C3 (single isomer, unassigned) [Compound 21B]", "Fulfilled"),
    ("CC(c1nnc(C2CC2)o1)N1C[C@@H](C)n2nc3c(c2C1=O)CN(C(=O)c1ccc(Cl)c(Cl)c1)[C@H](C)C3 (single isomer, unassigned) [Compound 44B]", "Not fulfilled"),
    ("CC(c1ccnc(OC(F)F)c1)N1C[C@@H](C)n2nc3c(c2C1=O)CN(C(=O)c1ccc(Cl)c(C(F)(F)F)c1)[C@H](C)C3 (single isomer, unassigned) [Compound 50B]", "Not fulfilled"),
]

Query: Does the reported EC50 of the following molecule sit strictly below 0.02 µM? CC(c1ccnc(Cl)c1)N1C[C@@H](C)n2nc3c(c2C1=O)CN(C(=O)c1ccc(Cl)c(Cl)c1)[C@H](C)C3 (single isomer, unassigned) [Compound 31B]
Result: Fulfilled

Query: Decide: EC50 of C[C@@H]1Cc2nn3c(c2CN1C(=O)c1ccc(Cl)c(C(F)(F)F)c1)C(=O)N([C@H](C)c1ccc([S@](C)(=O)=NC#N)cc1)C[C@H]3C (relative stereo) [Compound 20B] strictly below 0.02 µM?
Result: Not fulfilled

----------
- System: HBV (HepG2.117 cell line, inducibly HBV producing)
- experiment summary: Anti-HBV activity, intracellular HBV DNA by real-time PCR in HepG2.117 cell line
- Assay type: cell-based, hepatitis B virus
- experimental parameters: HepG2.117 cells, 3 days of treatment
property measured: EC50 (µM)
The reply should contain only the number, in µM.

# compound, EC50, µM
measured = [
    ("CNC(=O)C1(Oc2ccc(C(C)N3C[C@@H](C)n4nc5c(c4C3=O)CN(C(=O)c3ccc(Cl)c(C#N)c3)[C@H](C)C5)cc2)CC1 (single isomer, unassigned) [Compound 13B]", 0.091),
    ("C[C@@H]1Cc2nn3c(c2CN1C(=O)c1ccc(Cl)c(C(F)(F)F)c1)C(=O)N([C@H](C)c1ccc([S@@](C)(=O)=NC#N)cc1)C[C@H]3C (relative stereo) [Compound 20A]", 0.041),
    ("CC(c1ccc(NS(C)(=O)=O)cn1)N1C[C@@H](C)n2nc3c(c2C1=O)CN(C(=O)c1ccc(Cl)c(C(F)(F)F)c1)[C@H](C)C3 (single isomer, unassigned) [Compound 33B]", 0.043),
    ("CC(c1cnc(N2CCOC[C@@H]2C)nc1)N1C[C@@H](C)n2nc3c(c2C1=O)CN(C(=O)c1ccc(Cl)c(C(F)(F)F)c1)[C@H](C)C3 (single isomer, unassigned) [Compound 38B]", 0.012),
]

From here, focus on the item given below.
Query: Request the reported EC50 associated with CC(c1cnc(C(C)(C)O)nc1)N1C[C@@H](C)n2nc3c(c2C1=O)CN(C(=O)c1ccc(Cl)c(Cl)c1)[C@H](C)C3 (single isomer, unassigned) [Compound 36B]
Result: 0.029

----------
- Tested on: HepG2 or HepG2.117 cells
- experiment summary: Cytotoxicity, ATPlite Luminescence Assay
- Format: cell-based, human
- experimental parameters: 3-days incubation unless marked with *
Catalogue of CC50 readings, one per entry.

Study these solved cases before continuing.
# compound, assay value
records = [
    ("CC(c1ccc(C(F)(F)F)nc1)N1C[C@@H](C)n2nc3c(c2C1=O)CN(C(=O)c1ccc(Cl)c(C#N)c1)[C@H](C)C3 (single isomer, unassigned) [Compound 12B]", "> 50 µM"),
    ("CC(c1ccn(CC(C)(C)O)c(=O)c1)N1C[C@@H](C)n2nc3c(c2C1=O)CN(C(=O)c1ccc(Cl)c(C(F)(F)F)c1)[C@H](C)C3 (single isomer, unassigned) [Compound 64B]", "> 50 µM"),
]

Now let's try a different one.
Query: # lookup: CC50 of CC(c1ccc(-c2ccn(C)n2)cc1)N1C[C@@H](C)n2nc3c(c2C1=O)CN(C(=O)c1ccc(Cl)c(C#N)c1)[C@H](C)C3 (single isomer, unassigned) [Compound 21B]
Result: > 50 µM

----------
- System: HBV (HepG2.117 cell line, inducibly HBV producing)
- experiment summary: Anti-HBV activity, intracellular HBV DNA by real-time PCR in HepG2.117 cell line
- Type: cell-based, hepatitis B virus
- experimental parameters: HepG2.117 cells, 3 days of treatment
property measured: EC50 (µM)
Answer with a number only, understood to be in µM.

# molecule, target under test, property measured, readout units, assay value
measured = [
    ("C[C@@H]1Cc2nn3c(c2CN1C(=O)c1ccc(Cl)c(C(F)(F)F)c1)C(=O)N([C@@H](C)c1ccc([S@@](C)(=O)=NC#N)cc1)C[C@H]3C (relative stereo) [Compound 20C]", "HBV (HepG2.117 cell line, inducibly HBV producing)", "EC50", "µM", 0.016),
]

Continue with the molecule presented below.
Query: Return reported EC50; argument: CC(c1ccc(S(C)(=O)=O)cc1)N1C[C@@H](C)n2nc3c(c2C1=O)CN(C(=O)c1ccc(Cl)c(Cl)c1)[C@H](C)C3 (single isomer, unassigned) [Compound 15B]
Result: 0.019

----------
# CC50 at 3 days per entry
- experiment summary: Cytotoxicity, ATPlite Luminescence Assay
- Type: cell-based, human
- experimental parameters: human, HepG2 or HepG2.117 cells, 3-days incubation unless marked with *

# compound, property measured, assay value
measured = [
    ("CC(C)Oc1cc(C(C)N2C[C@@H](C)n3nc4c(c3C2=O)CN(C(=O)c2ccc(Cl)c(C(F)(F)F)c2)[C@H](C)C4)ccn1 (single isomer, unassigned) [Compound 48A]", "CC50 at 3 days", "22.1 µM"),
    ("CC(c1ccnc(OC(F)F)c1)N1C[C@@H](C)n2nc3c(c2C1=O)CN(C(=O)c1ccc(Cl)c(C(F)(F)F)c1)[C@H](C)C3 (single isomer, unassigned) [Compound 50A]", "CC50 at 3 days", "12.5 µM"),
    ("CC(c1ccc(-n2cncn2)nc1)N1C[C@@H](C)n2nc3c(c2C1=O)CN(C(=O)c1ccc(Cl)c(Cl)c1)[C@H](C)C3 (single isomer, unassigned) [Compound 5A]", "CC50 at 3 days", "> 50 µM"),
]

Query: Returns the measured CC50 at 3 days for the input compound. Input: CC(c1ccc(N2CCCC2=O)cc1)N1C[C@@H](C)n2nc3c(c2C1=O)CN(C(=O)c1ccc(Cl)c(C#N)c1)[C@H](C)C3 (single isomer, unassigned) [Compound 9A]
Result: > 50 µM

Query: Item CC(c1ccccn1)N1CCn2nc3c(c2C1=O)CN(C(=O)c1ccc(Cl)c(Cl)c1)[C@H](C)C3 (mixture of isomers) [Ref 3, reference compound] has what recorded CC50 at 3 days?
Result: > 50 µM

Query: Entry CC(c1ccccn1)N1C[C@@H](C)n2nc3c(c2C1=O)CN(C(=O)c1ccc(Cl)c(Cl)c1)[C@H](C)C3 (single isomer, unassigned) [Compound 65A] has what CC50 at 3 days?
Result: > 50 µM

Query: State the recorded CC50 at 3 days for this entry: C[C@@H]1Cc2nn3c(c2CN1C(=O)c1ccc(Cl)c(C#N)c1)C(=O)N([C@@H](C)c1ccc(OC(F)F)cc1)C[C@@H]3C (relative stereo) [Compound 1B]
Result: > 50 µM

Query: Using the record for C[C@@H]1Cc2nn3c(c2CN1C(=O)c1ccc(Cl)c(C#N)c1)C(=O)N([C@H](C)c1ccc(OC(F)F)cc1)CC3 [Ref 1, reference compound] , report its CC50 at 3 days.
Result: > 12.5 µM

Query: Any idea what CC50 at 3 days was measured for CC(c1cnc(N2CCOC[C@@H]2C)nc1)N1C[C@@H](C)n2nc3c(c2C1=O)CN(C(=O)c1ccc(Cl)c(C(F)(F)F)c1)[C@H](C)C3 (single isomer, unassigned) [Compound 38A] ?
Result: 47 µM

Query: // CC50 at 3 days lookup, key: C[C@@H]1Cc2nn3c(c2CN1C(=O)c1ccc(Cl)c(C(F)(F)F)c1)C(=O)N([C@@H](C)c1ccc([S@@](C)(=N)=O)cc1)C[C@H]3C (relative stereo) [Compound 19D]
Result: > 50 µM

Query: CC50 at 3 days lookup needed for CN=[S@](C)(=O)c1ccc([C@@H](C)N2C[C@@H](C)n3nc4c(c3C2=O)CN(C(=O)c2ccc(Cl)c(Cl)c2)[C@H](C)C4)cn1 (relative stereo) [Compound 29A] , thanks.
Result: > 50 µM

Query: // CC50 at 3 days lookup, key: C[C@@H]1Cc2nn3c(c2CN1C(=O)c1ccc(Cl)c(Cl)c1)C(=O)N([C@H](C)c1ccc([S@](C)(=N)=O)cc1)C[C@H]3C (relative stereo) [Compound 18A]
Result: > 50 µM

Query: Recorded CC50 at 3 days for CN=[S@@](C)(=O)c1ccc([C@H](C)N2C[C@@H](C)n3nc4c(c3C2=O)CN(C(=O)c2ccc(Cl)c(Cl)c2)[C@H](C)C4)cn1 (relative stereo) [Compound 29D] , please?
Result: > 50 µM

Query: Given CC(c1cnn(C(C)C)c(=O)c1)N1C[C@@H](C)n2nc3c(c2C1=O)CN(C(=O)c1ccc(Cl)c(C(F)(F)F)c1)[C@H](C)C3 (single isomer, unassigned) [Compound 53A] , state its recorded CC50 at 3 days.
Result: > 50 µM

Query: Return reported CC50 at 3 days; argument: CC(c1ccnc(Cl)c1)N1C[C@@H](C)n2nc3c(c2C1=O)CN(C(=O)c1ccc(Cl)c(Cl)c1)[C@H](C)C3 (single isomer, unassigned) [Compound 31A]
Result: 31.5 µM

Query: Reported CC50 at 3 days, compound CC(c1ccc(=O)n(C)n1)N1C[C@@H](C)n2nc3c(c2C1=O)CN(C(=O)c1ccc(Cl)c(Cl)c1)[C@H](C)C3 (single isomer, unassigned) [Compound 55A] : ____
Result: > 50 µM

Query: CC50 at 3 days for CC(c1ccc(C(C)(C)O)nc1)N1C[C@@H](C)n2nc3c(c2C1=O)CN(C(=O)c1cc(Cl)c(Cl)cn1)[C@H](C)C3 (single isomer, unassigned) [Compound 57A] ?
Result: > 50 µM

Query: For CNS(=O)(=O)c1ccc(C(C)N2C[C@@H](C)n3nc4c(c3C2=O)CN(C(=O)c2ccc(Cl)c(Cl)c2)[C@H](C)C4)cc1 (single isomer, unassigned) [Compound 17A] , what is its reported CC50 at 3 days?
Result: > 50 µM

Query: What CC50 at 3 days value was documented for this compound, CC(c1ccc(N2CCCS2(=O)=O)nc1)N1C[C@@H](C)n2nc3c(c2C1=O)CN(C(=O)c1ccc(Cl)c(C(F)(F)F)c1)[C@H](C)C3 (single isomer, unassigned) [Compound 28A] ?
Result: > 50 µM

Query: Which CC50 at 3 days is listed for CC(c1ncccn1)N1C[C@@H](C)n2nc3c(c2C1=O)CN(C(=O)c1ccc(Cl)c(Cl)c1)[C@H](C)C3 (single isomer, unassigned) [Compound 39A] ?
Result: > 50 µM

Query: Data request, read-out CC50 at 3 days, for CC(c1ccc(C(F)(F)F)nc1)N1C[C@@H](C)n2nc3c(c2C1=O)CN(C(=O)c1ccc(Cl)c(C#N)c1)[C@H](C)C3 (single isomer, unassigned) [Compound 12A]
Result: > 50 µM
